Test system: MDA-MB-231 cells
Assay: Cell proliferation assay (CellTiter-Glo), MDA-MB-231
Assay type: cell-based
Conditions: Homo sapiens, MDA-MB-231, 72 h, 72 h treatment, Celltiter-Glo luminescence
pIC50: −log10 of the molar value.
ENDPOINT LABEL: pIC50

• COCCn1nc2c(Cc3ccc(F)cc3)cc3c(n2c1=O)C(C)(C)CN3C(=O)CN1C[C@@H](C)NC[C@@H]1CN1CCOC[C@H]1C [Compound 227] = 7.09
• C[C@@H]1CN(CC(=O)N2CC(C)(C)c3c2cc(Cc2ccc(F)cc2)c2nn(Cc4ccccn4)c(=O)n32)[C@@H](CN2CCOC[C@H]2C)CN1 [Compound 192] = 7.42
• C[C@@H]1CN(CC(=O)N2CC(C)(C)c3c2cc(Cc2ccc(F)cc2)c2nn(CC(C)(C)O)c(=O)n32)[C@@H](CN2CC3CCC(C2)O3)CN1 [Compound 265] = 7.39
• C[C@@H]1CN(CC(=O)N2CC(C)(C)c3c2cc(Cc2ccc(F)cc2)c2nn(CC4(O)CC4)c(=O)n32)[C@@H](CN2CCOC[C@H]2C)CN1 [Compound 240] = 7.60

Data credit: patent US20250179073A1
